Recorded values, source PubChem BioAssay AID651640.

experimental protocol: inhibitors of DENV2 cytopathic effect, primary screen, cell-based, plate reader, single concentration (AID 651640);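 further: 0% = median of neutral control wells and 100% = median of positive control wells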
measurement parameters: DENV2-infected cells, cytopathic effect rescue, at 9.99 µM, hits give high values
Out of some 350,000 compounds screened, about 6,000 (1.7%) were called active. Not shown: some 5% with an inconclusive outcome. The entries come from a sample that favours actives as a whole.
readout type: CPE inhibition (%)
Report the figure in % without appending any unit label.

// solved cases for CPE inhibition follow
## Task Return reported CPE inhibition; argument: "CN1C(=O)c2cc(NC(=O)C3CCCC3)ccc2OC[C@@H]2O[C@@H](CC(=O)NCCc3ccncc3)CC[C@@H]21"
## Result 26.3

## Task Return reported CPE inhibition; argument: "N#C[C@H]1[C@@H](c2ccccc2C2=CCCC2)[C@H](CO)N1C(=O)c1cccc(F)c1"
## Result 19.5

## Task Return reported CPE inhibition; argument: "CN1C(=O)c2cc(NC(=O)C3CCCC3)ccc2OC[C@H]2O[C@@H](CC(=O)NCCc3ccncc3)CC[C@H]21"
## Result 5.23

## Task Return reported CPE inhibition; argument: "COC(=O)C[C@@H]1C[C@H]2c3cc(NC(=O)NC4CCCC4)ccc3O[C@H]2[C@H](CO)O1"
## Result 0.692

## Task Return reported CPE inhibition; argument: "C[C@@H]1CN([C@H](C)CO)C(=O)c2cc(C#CC3(O)CCCC3)cnc2O[C@H]1CN(C)C(=O)C1CCC1"
## Result 35.8

Next:
## Task Return reported CPE inhibition; argument: "C[C@@H]1CN([C@H](C)CO)C(=O)c2cc(-c3cccc(C#N)c3)cnc2O[C@H]1CN(C)C(=O)C1CCC1"
## Result 27.5

## Task Return reported CPE inhibition; argument: "CCS(=O)(=O)N1CC2(CN(Cc3cc(F)ccc3F)[C@@H](CO)c3c2c2ccc(OC)cc2n3C)C1"
## Result -8.85

## Task Return reported CPE inhibition; argument: "C[C@@H]1CCCCO[C@H](CN(C)C(=O)Cc2ccccc2)[C@H](C)CN([C@@H](C)CO)C(=O)c2cc(NS(=O)(=O)c3ccc(F)cc3)ccc2O1"
## Result -10.6

## Task Return reported CPE inhibition; argument: "C[C@@H]1CCCCO[C@@H](CN(C)C(=O)NC2CCCCC2)[C@@H](C)CN([C@@H](C)CO)C(=O)c2cc(NC(=O)C3CCCCC3)ccc2O1"
## Result -1.85

## Task Return reported CPE inhibition; argument: "COc1ccc2c3c(n(C)c2c1)[C@@H](CO)N(C(C)=O)CC31CCN(Cc2nccs2)CC1"
## Result -1.04
